Hey, just so you know, these numbers are from patent US20160145321A1.

Molecular target: T1, Recombinant RSV attachment protein (G protein) corresponding to RSV A/Long (Respiratory syncytial virus A/Long, UniProt P20895 65-298)
T1 construct: also called RSV Ga; Ga
T1 sequence: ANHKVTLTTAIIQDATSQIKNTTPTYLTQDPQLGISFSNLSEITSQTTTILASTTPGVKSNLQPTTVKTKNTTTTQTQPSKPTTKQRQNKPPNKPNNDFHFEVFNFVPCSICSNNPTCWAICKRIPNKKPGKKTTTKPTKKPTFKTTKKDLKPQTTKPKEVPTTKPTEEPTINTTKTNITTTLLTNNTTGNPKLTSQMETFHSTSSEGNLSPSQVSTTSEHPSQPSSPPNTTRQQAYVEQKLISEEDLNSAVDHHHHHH
Assay: ELISA, coated recombinant protein (Example 6)
RECORDED METRIC: binding result

CB028.2 (antibody, V domains shown) VH: QVQLVQSGAEVKKPGASVKVSCKASGYTFTTYGITWVRQAPGQGLEWMGWISGDSDNTNYAQNLQGRVTLTTDISTRTAYMELRSLKPDDTAMYYCARALAKWYCSSSSCFCGGGSCYSDYWGQGTLVTVSS VL: DIQMTQSPSSLSASVGDRVTITCRASQGMSNYLNWYQQKPGKAPELLIYAASTLQSGVPSRFSGSGSGTDFTLTINSLQPEDFATYFCQQSFSTPLTFGGGTKVEIK    binds
CB058.1 (antibody, V domains shown) VH: EVQLVESGGGLVQPGGSLRLSCVASGFTFSSYAMSWVRQAPGKGLEWVSAIRGSVDNTYYADSVKGRFTISRDNSKNTLYLQMNSLRVEDTAVYYCAKDPALYCSGETCFSDLTDWGQGTLVTVSS VL: DIQMTQSPSSLSASVGDRVTITCRASQGINNYLAWFQQKPGKAPKSLIYAASTLPSGVPSRFSGSGSGTDFTLTISSLQPEDSATYFCQHYIRYPHTFGQGTKLEIK    binds
CB048.3 (antibody, V domains shown) VH: QVQLVESGGGVVQPGRSLRLSCAASGFTFSNHGMHWVRQAPGKGLEWVAVISYDGNKKYYADSVKGRFTVSRDNSKNTLSLQMDSLRAEDTAIYYCAKTTFYFDDSNYYEYLDYWGQGTLVTVSS VL: DIQLTQSPSFLSASVGDRVTITCRASQGIRSYLAWYQQKPGKAPKLLIYAASTLQSGVPSRFSGGGSGTEFTLTISSLQPEDSATYYCQQLNTSPPYTFGQGTKLEIK    binds
